# test.system: Neuropilin-1 (Homo sapiens)
# protocol.text: NRP-1 b1b2 CendR peptide binding inhibitors, dose response, biochemical, FP and AlphaScreen panel (AID 651650)
# condition.summary: NRP-1 b1b2 / RPARPAR peptide binding, FP or AlphaScreen; AlphaScreen, mean of runs
Activity calls are given as the source filed them.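 How the source made its calls: active means mean IC50 below 20 µM in each of the two panels, so potent in both; inactive means the rest.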
Possible outcomes: 1 (yes) for active, 0 (no) for inactive

- compound: "COc1c2ccc(C(=O)NCc3cc(C(F)(F)F)cc(C(F)(F)F)c3)cc2nn1C"
  test.system: "Neuropilin-1 (Homo sapiens)"
  class.label: "0 (no)"
- compound: "CC(C)C1=C2CCCCC2NC(=O)N1 (stereo not given)"
  test.system: "Neuropilin-1 (Homo sapiens)"
  class.label: "0 (no)"
- compound: "CC(C)COC(=O)C1C2C=CC3(CN(C(C)c4ccc(Br)cc4)C(=O)C13)O2 (stereo not given)"
  test.system: "Neuropilin-1 (Homo sapiens)"
  class.label: "0 (no)"
- compound: "COc1ccc(-c2[nH]ncc2CN(C)CCc2c(C)n[nH]c2C)c(F)c1"
  test.system: "Neuropilin-1 (Homo sapiens)"
  class.label: "0 (no)"
- compound: "Cc1ccc(Cl)cc1N1CCN(C(=O)c2cccc3c(=O)c(C)c(-c4ccccc4)oc23)CC1"
  test.system: "Neuropilin-1 (Homo sapiens)"
  class.label: "0 (no)"
- compound: "O=C(c1ccc(-c2cccc(Cl)c2)o1)N1CCN(c2ccc([N+](=O)[O-])cc2)CC1"
  test.system: "Neuropilin-1 (Homo sapiens)"
  class.label: "0 (no)"
- compound: "CC(C)C(N)c1csc(NC(=O)Nc2cccc(C(F)(F)F)c2)n1 (stereo not given)"
  test.system: "Neuropilin-1 (Homo sapiens)"
  class.label: "0 (no)"
- compound: "CC(C)(C)n1nc(-c2ccc(F)cc2)c2c(N)ncnc21"
  test.system: "Neuropilin-1 (Homo sapiens)"
  class.label: "0 (no)"
- compound: "CN(C(=O)COC(=O)c1nc(-c2ccccc2)n(-c2ccccc2)n1)C1CCS(=O)(=O)C1 (stereo not given)"
  test.system: "Neuropilin-1 (Homo sapiens)"
  class.label: "0 (no)"
- compound: "CCOC(=O)c1cnc(-c2ccccc2)nc1Oc1ccc(OC)cc1"
  test.system: "Neuropilin-1 (Homo sapiens)"
  class.label: "1 (yes)"

###

# test.system: Neuropilin-1 (Homo sapiens)
# protocol.text: NRP-1 b1b2 CendR peptide binding inhibitors, dose response, biochemical, FP and AlphaScreen panel (AID 651650)
# condition.summary: NRP-1 b1b2 / RPARPAR peptide binding, FP or AlphaScreen; AlphaScreen, mean of runs
Active and inactive are the calls of the source.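 The calls were made as follows: active = mean IC50 below 20 µM in each of the two panels, so potent in both; inactive = the rest.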
reported.endpoint: IC50

- compound: "Fc1cnc(N2CCOCC2)nc1N1CCOCC1"
  recorded.result: "> 100 µM (inactive)"
- compound: "O=C(O)c1ccc(C(=O)Nc2cccc3ccccc23)c(C(=O)O)c1"
  recorded.result: "inactive"
- compound: "CCOC(=O)C1(O)CC(C)=NN1C(=O)c1cccc(Br)c1 (stereo unspecified)"
  recorded.result: "> 100 µM (inactive)"
- compound: "CN(C)/C=C/c1c([N+](=O)[O-])c2ccc(O)cc2n1-c1ccccc1"
  recorded.result: "> 100 µM (inactive)"
- compound: "Cc1cc2c(cc1C)NC(c1nc3ccccc3[nH]1)C1=C(CC(C)(C)CC1=O)N2 (stereo unspecified)"
  recorded.result: "> 100 µM (inactive)"
- compound: "CCN(CC)C(=O)CSc1nnc(-c2c[nH]c3ccccc23)o1"
  recorded.result: "> 100 µM (inactive)"
- compound: "CC(CN1CCCCC1)OC(=O)c1ccc(Cl)cc1Cl (stereo unspecified)"
  recorded.result: "> 100 µM (inactive)"
- compound: "CNc1nc(-c2ccc3c(c2)CCN3C(=O)c2ccccc2F)cs1"
  recorded.result: "> 100 µM (inactive)"
- compound: "CC(=O)Nc1ccc2nc3c(=O)n(C)c(=O)n(C)c3nc2c1"
  recorded.result: "inactive"
- compound: "COC(=O)CCCC1=CC2=CC(=O)C(C)(OC(=O)c3cccs3)C(=O)C2=CN1CCCCO (stereo unspecified)"
  recorded.result: "> 100 µM (inactive)"
- compound: "COc1cc2c(cc1OC)C(Nc1ccc(S(N)(=O)=O)cc1)=NC(C)(C)C2"
  recorded.result: "inactive"

###

# test.system: Neuropilin-1 (Homo sapiens)
# protocol.text: NRP-1 b1b2 CendR peptide binding inhibitors, dose response, biochemical, FP and AlphaScreen panel (AID 651650)
# condition.summary: NRP-1 b1b2 / RPARPAR peptide binding, FP or AlphaScreen; AlphaScreen, mean of runs
Active and inactive are the calls of the source.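 How the source made its calls: active means mean IC50 below 20 µM in each of the two panels, so potent in both; inactive means the rest.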
Outcome codes: active, inactive

- molecule: "CSc1nc2ccccc2c(=O)n1C1CCOC(C)(C)C1 (stereo unspecified)"
  class.label: "inactive"
- molecule: "CN(c1ccccc1)S(=O)(=O)c1cccc(NC(=O)CSc2nncn2C)c1"
  class.label: "inactive"
- molecule: "COc1ccc(Cn2c(C3CC3)nc3ccc(NC(=O)c4cccnc4)cc3c2=O)cc1"
  class.label: "inactive"
- molecule: "Cc1ccnc(N2CCC(C(=O)Nc3ccc4c(c3)OCCO4)CC2)n1"
  class.label: "inactive"
- molecule: "O=C(CSc1nnc(CNC(=O)C23CC4CC(CC(C4)C2)C3)n1-c1ccccc1)Nc1ccc(F)cc1"
  class.label: "inactive"
- molecule: "CCC1=C(OC(=O)N(CC)CC)N2C(=O)OC(=NCCOC)[C@]2(Cc2ccccc2)[C@H]2C1=CC[C@H]1C(=O)N(CC(=O)OC)C(=O)[C@H]12"
  class.label: "inactive"
- molecule: "Cc1ccc2c(c1)C(c1ccncc1)=NNC(c1ccc(F)cc1)=N2"
  class.label: "inactive"
- molecule: "COc1ccncc1-c1csc(C(O)c2ccccc2)n1 (stereo unspecified)"
  class.label: "inactive"
- molecule: "Cc1onc(-c2ccc(Cl)cc2Cl)c1-c1csc(COc2ccccc2)n1"
  class.label: "inactive"
- molecule: "Fc1cc(Cl)ccc1Nc1nc(NCc2ccccc2)nc2ccsc12"
  class.label: "inactive"
- molecule: "CCn1c(SCC(=O)c2ccccc2)nnc1-c1cccs1"
  class.label: "inactive"
- molecule: "CC(=O)Nc1ccc(NC(=O)C2CC(=O)N=C(N)S2)cc1 (stereo unspecified)"
  class.label: "inactive"
- molecule: "O=C(Cn1cccc1C(=O)c1ccccc1)NCCC1=CCCCC1"
  class.label: "active"
- molecule: "CC(=O)OC1CC[C@]2(C#N)[C@H]3CC[C@]4(C)[C@H](C5C=CC(=O)O5)CCC4(O)C3CCC2(O)C1 (stereo partly specified)"
  class.label: "inactive"
- molecule: "Cc1cc(NC(=O)CCC(=O)NNC(=O)c2ccc(C(C)(C)C)cc2)no1"
  class.label: "active"
- molecule: "CC(=O)Nc1ccccc1OCC(=O)N(Cc1ccccc1)C(C)C"
  class.label: "inactive"
- molecule: "Cc1ccccc1NC(=O)c1cccc(NC(=O)CCC(=O)O)c1"
  class.label: "inactive"
- molecule: "COCc1cccc(-c2csc(C(C)(O)c3ccccc3)n2)c1 (stereo unspecified)"
  class.label: "inactive"
- molecule: "CCCCOC(=O)c1ccc(NS(=O)(=O)c2cc(-c3nnnn3CC)ccc2OC)cc1"
  class.label: "inactive"
- molecule: "COCCNC(=O)c1cc(-c2ccccc2)nn1CC1CC(c2cccc([N+](=O)[O-])c2)=NO1 (stereo unspecified)"
  class.label: "inactive"
- molecule: "CN(C)/N=C/c1ccc(Sc2ccc([N+](=O)[O-])cc2[N+](=O)[O-])o1"
  class.label: "inactive"

###

# test.system: Neuropilin-1 (Homo sapiens)
# protocol.text: NRP-1 b1b2 CendR peptide binding inhibitors, dose response, biochemical, FP and AlphaScreen panel (AID 651650)
# condition.summary: NRP-1 b1b2 / RPARPAR peptide binding, FP or AlphaScreen; AlphaScreen, mean of runs
Active and inactive are the calls of the source.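 How the source made its calls: active means mean IC50 below 20 µM in each of the two panels, so potent in both; inactive means the rest.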
Possible outcomes: True for active, False for inactive

- molecule: "CCCS(=O)(=O)N1CCC(C(=O)NC2CCCC(C)C2C)CC1 (configuration not stated)"
  class.label: "True"
- molecule: "CC(OC(=O)c1ccco1)C(=O)Nc1nc(-c2ccccc2)cs1 (configuration not stated)"
  class.label: "False"
- molecule: "CCC1Nc2ncnc(N3CCCCC3)c2N(Cc2ccc(C)cc2)C1=O (configuration not stated)"
  class.label: "False"
- molecule: "CCOc1ccc(N2C(=O)CC(N3CCN(c4ccc(Cl)cc4)CC3)C2=O)cc1 (configuration not stated)"
  class.label: "False"
- molecule: "CCC1=C(OC(=O)N(CC)CC)N2C(=O)OC(=NCC3CC3)[C@]2(Cc2ccccc2)[C@H]2C1=CC[C@H]1C(=O)N(C)C(=O)[C@H]12"
  class.label: "False"
- molecule: "Cc1ccc(S(=O)(=O)N2[C@@H](c3ccc(Cl)cc3)C(C(=O)OC(C)(C)C)=CC[C@H]2c2ccc(Cl)c(Cl)c2)cc1"
  class.label: "False"
- molecule: "N/C(CSc1ccc(Cl)cc1)=N\\S(=O)(=O)c1ccc(Cl)cc1"
  class.label: "False"
- molecule: "COC(=O)c1ccc(Cn2nnc3c(=O)[nH]c(C4CCCN(S(=O)(=O)c5cccc(Cl)c5)C4)nc32)cc1 (configuration not stated)"
  class.label: "False"
- molecule: "CN(Cc1cnn(C)c1)C(=O)c1cc2ccccc2oc1=O"
  class.label: "False"
- molecule: "CN1CCC(=NNC(=O)c2ccco2)CC1"
  class.label: "False"
- molecule: "CCCN(C(=O)Cn1c(C(F)(F)F)nc2ccccc21)C1CCS(=O)(=O)C1 (configuration not stated)"
  class.label: "True"
- molecule: "Cc1csc(NC(C)c2nc3cc(C(F)(F)F)ccc3n2CCOCCO)n1 (configuration not stated)"
  class.label: "False"
- molecule: "O=C(O)CCSc1nnc(COc2cccc3cccnc23)n1-c1ccccc1"
  class.label: "False"
- molecule: "O=C(CSc1nnc(Cc2ccccc2)n1Cc1ccccc1)NCc1ccco1"
  class.label: "False"
- molecule: "O=C(NCc1ccccc1)c1ccc(N2CCC3(CC2)CC(c2ccc(Cl)cc2)=NO3)c([N+](=O)[O-])c1"
  class.label: "False"
- molecule: "CN1C(=O)c2oc3ccccc3c(=O)c2C1c1ccccn1 (configuration not stated)"
  class.label: "False"
- molecule: "CCN(c1ccccc1)S(=O)(=O)c1ccc(C(=O)N(CCCN(C)C)c2nc3cc4c(cc3s2)OCO4)cc1"
  class.label: "False"
- molecule: "O=C(NNC(=O)c1csc(N2CCOCC2)n1)c1ccc(=O)[nH]c1"
  class.label: "False"
- molecule: "Cc1onc(-c2ccccc2)c1C(=O)Nc1c(C)n(C)n(-c2ccccc2)c1=O"
  class.label: "False"
- molecule: "CC(C)(C)C(=O)c1cnc(Nc2ccccc2)s1"
  class.label: "False"
- molecule: "O=S1(=O)CCOC[C@H](Cc2ccccc2)N1Cc1ccccc1F"
  class.label: "False"
- molecule: "COc1ccccc1N1CCN(C2CCCN(C(=O)Cn3cccn3)C2)CC1 (configuration not stated)"
  class.label: "False"
- molecule: "CCC1=C(OC(=O)N(CC)CC)N2C(=O)OC(=NCC(=O)OC)[C@]2(C)[C@H]2C1=CC[C@H]1C(=O)N(CC)C(=O)[C@H]12"
  class.label: "False"
- molecule: "O=C(OCn1nnc2ccccc2c1=O)c1ccc(Br)o1"
  class.label: "False"
- molecule: "O=C(CCc1ccc(Oc2cc([N+](=O)[O-])cc([N+](=O)[O-])c2)cc1)N1CCCCCC1"
  class.label: "True"
- molecule: "CCc1onc(C)c1C(=O)Nc1cc(C)ccc1OC"
  class.label: "True"
- molecule: "CCO[C@@H]1OC(C(=O)NCc2ccccc2)=C[C@H](c2ccc(Br)cc2)[C@H]1CCCO"
  class.label: "False"
- molecule: "COc1ccc2c(c1OC)CN1CCc3cc4c(cc3[C@@H]1[C@@H]2O)OCO4"
  class.label: "False"
- molecule: "c1ccc2c(c1)CCCN2Cc1nnnn1CC1CCCO1 (configuration not stated)"
  class.label: "False"
- molecule: "NS(=O)(=O)c1cccnc1Nc1cccc(Cl)c1Cl"
  class.label: "False"
- molecule: "CC(C)Oc1ccc(F)cc1-c1cc(C(=O)NCc2ccc(F)cc2)[nH]n1"
  class.label: "False"
- molecule: "O=C(COC(=O)C1CC(=O)N(Cc2ccccc2)C1)Nc1ccccc1F (configuration not stated)"
  class.label: "False"
- molecule: "COc1ccc(-c2noc(CN(C(=O)c3ccc4c(c3)OCO4)C(C)C)n2)cc1"
  class.label: "False"
- molecule: "O=C1CCC[C@@H]2Cc3nc4cc5c(cc4cc3[C@@H]3CCN1[C@H]23)OCO5"
  class.label: "False"
- molecule: "NNc1ncnc2c1cnn2-c1ccccc1"
  class.label: "False"
- molecule: "CCOC(=O)C(NC(=O)CC(C)C)(Nc1sc(C)c(CC)c1C#N)C(F)(F)F (configuration not stated)"
  class.label: "False"
- molecule: "Cc1ccc(NC=C(S(=O)(=O)c2ccccc2)S(=O)(=O)c2ccccc2)cc1"
  class.label: "False"
- molecule: "COc1ccc(/C=N/NC(=O)c2ccccc2Cl)cc1CSc1nc2ccccc2s1"
  class.label: "False"
- molecule: "Cc1ccc(Nc2c(-c3ccccc3O)nc3ncccn23)cc1"
  class.label: "False"
- molecule: "Cc1cc(C)n2c(Nc3ccc4c(c3)OCCO4)c(-c3ccccn3)nc2n1"
  class.label: "False"
- molecule: "COc1cc(C(=O)OCC(=O)Nc2c(F)c(F)c(F)c(F)c2F)cc(OC)c1OC"
  class.label: "False"
- molecule: "Cc1nc(Nc2ccc(S(N)(=O)=O)cc2)oc1C"
  class.label: "False"
